The measurements presented in this section are drawn from patent USRE47150.

target: T1, human tissue factor pathway inhibitor (TFPI) (human, UniProt P10646 29-304, limits assumed)
T1 construct: bought; also called hTFPI; human TFPI
T1 sequence (looked up): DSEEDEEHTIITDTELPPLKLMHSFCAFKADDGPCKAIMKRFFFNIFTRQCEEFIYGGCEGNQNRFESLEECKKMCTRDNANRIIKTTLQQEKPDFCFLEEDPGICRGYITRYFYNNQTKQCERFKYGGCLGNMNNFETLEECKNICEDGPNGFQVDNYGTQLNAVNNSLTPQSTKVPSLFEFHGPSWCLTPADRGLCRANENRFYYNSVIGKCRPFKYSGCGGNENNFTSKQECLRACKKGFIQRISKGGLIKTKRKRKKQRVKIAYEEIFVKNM
measurement.protocol: SPR, TFPI immobilized
quantity: koff (s⁻¹)
Report the figure in s⁻¹ without appending any unit label.

{"columns": ["binder", "unit.annotation", "result.number"],
 "data": [
  ["gB9.7 (4B7 HC Q1E+N32D+G44S+K55Y+D62R+Y112D/LC S32R+N35I) (Fab, V domains shown) VH: EVQLQQSGPGLVKPSQTLSLTCAISGDSVSSDSAAWSWIRQSPSRGLEWLGIIYYRSKWYNRYAVSVKSRITINPDTSKNQFSLQLNSVTPEDTAVYYCARWHSDKHWGFDDWGQGTLVTVSS VL: DIVMTQSPLSLPVTPGEPASISCRSSQSLVFRDGITYLNWYLQKPGQSPQLLIYKGSNRASGVPDRFSGSGSGTDFTLKISRVEAEDVGVYYCQQYDSYPLTFGQGTKVEIKR", "s⁻¹", "9.55e-06"]
]}

Now let's try a different one.
Look up koff for this binder: B41.2 (4B7 HC N32D+D62R+Y112D/LC S32R+D33F+N35I) (Fab, V domains shown) VH: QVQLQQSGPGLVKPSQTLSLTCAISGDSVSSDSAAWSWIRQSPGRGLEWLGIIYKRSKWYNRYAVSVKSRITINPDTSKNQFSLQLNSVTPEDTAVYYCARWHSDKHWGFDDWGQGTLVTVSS VL: DIVMTQSPLSLPVTPGEPASISCRSSQSLVFRFGITYLNWYLQKPGQSPQLLIYKGSNRASGVPDRFSGSGSGTDFTLKISRVEAEDVGVYYCQQYDSYPLTFGQGTKVEIKR
2.47e-05
